As an illustration, consider measured GI50 for compounds on U251 CNS.

{"compound": "Cc1cc(N2CCCC2)nc(NCc2cc(Nc3ccnc4cc(Cl)ccc34)ccc2F)n1", "GI50": "1500 nM"}
{"compound": "CCOC(=O)c1c(C)nc2c(c1N)CC(=O)N2CCc1ccccc1", "GI50": "997 nM"}
{"compound": "Cc1ccc(C2=Nc3c(N)ncnc3NC(c3ccc4c(c3)OCO4)C2)cc1 (stereo not given)", "GI50": "4550 nM"}
{"compound": "CN1CCN(Cc2ccc(NC(=O)c3cncc(C#Cc4cncc5nccnc45)c3)cc2C(F)(F)F)CC1", "GI50": "5670 nM"}
{"compound": "C[C@]12CC[C@H]3[C@@H](C[C@@H]4SC(Nc5ccccc5)=N[C@@]45CC(O)CC[C@]35C)[C@@H]1CCC2O (stereo not given in full)", "GI50": "1360 nM"}

====

- Test system: MOLT-4 leukemia
- assay explanation: NCI tumour cell line growth inhibition, 48 h; in the data active = GI50 below about 0.43 µM; inactive = the rest
Possible outcomes: TRUE = active, FALSE = inactive

{"compound": "COc1cc(-c2cc(/C=C/C(=O)c3ccc(Cl)c(Cl)c3)[nH]n2)cc(OC)c1OC", "group": "FALSE"}
{"compound": "C/C=C/[C@H]1O[C@@H]2C(=C[C@H]1O)C(=O)O[C@H]2C", "group": "FALSE"}
{"compound": "Nc1nc(N)c2c(n1)NC(c1ccccc1)C1CCc3ccccc3C1=N2 (stereo not given)", "group": "FALSE"}
{"compound": "COC1C(OC(=O)/C=C/C=C/C=C/C=C\\C(=O)O)CCC2(CO2)C1C1(C)OC1CC=C(C)C (stereo not given)", "group": "FALSE"}
{"compound": "CCCCNC(=O)Oc1ccc(/C(=C(/C)Cc2ccc(OC)cc2)c2ccc(OCCN3CCCC3)cc2)cc1", "group": "FALSE"}
{"compound": "C=CC/C(=C\\COP(=O)(OCc1ccc([N+](=O)[O-])o1)N(C)CCCCCl)CC/C=C(\\C)CCC=C(C)C (stereo not given)", "group": "FALSE"}
{"compound": "O=C1C(=O)c2ccccc2C(O)=C1CCCc1ccc(C2CCCCCC2)cc1", "group": "FALSE"}
{"compound": "c1cncc(C2Nc3cccc4cccc(c34)N2)c1", "group": "FALSE"}
{"compound": "N=C(N)c1ccc(NCCOCCNc2ccc(C(=N)N)cc2)cc1", "group": "FALSE"}
{"compound": "CCCCC(=O)N/N=C/c1c(O)ccc2ccccc12", "group": "TRUE"}
{"compound": "CCC(=O)Nc1ccccc1C#C/C=C\\C#Cc1ccccc1C(F)(F)F", "group": "FALSE"}
{"compound": "CCCCc1n(Cc2ccc3ccccc3c2)cc[n+]1Cc1ccc2ccccc2c1", "group": "FALSE"}
{"compound": "CN1CCN(Cc2ccc(NC(=O)c3cncc(C#Cc4cncc5nccnc45)c3)cc2C(F)(F)F)CC1", "group": "FALSE"}
{"compound": "O=S1(=O)CS(=O)(=O)OCCO1", "group": "FALSE"}
{"compound": "C/C(=N\\NC(=S)N1CC2CCC(CC2)C1)c1cccc(C)n1", "group": "TRUE"}

====

- Tested on: MALME-3M melanoma
- assay explanation: NCI tumour cell line growth inhibition, 48 h
Rule: TGI under 20 µM gives not fulfilled, otherwise fulfilled.

{"compound": "COC(=O)/C=C1/SC(N2N=C(c3cccs3)CC2c2ccc(F)cc2)=NC1=O (stereo not given)", "system name": "MALME-3M melanoma", "group": "not fulfilled"}
{"compound": "COc1cc(N2CCN(C(C)C)CC2)ccc1Nc1nc(Nc2cccc(F)c2C(=O)O)c2cc[nH]c2n1", "system name": "MALME-3M melanoma", "group": "fulfilled"}
{"compound": "CCCCCCCCCCCCOc1ccc(/C=C/C2=[N+](CCCl)CCO2)cc1", "system name": "MALME-3M melanoma", "group": "fulfilled"}
{"compound": "CC1=CC(C)C(C)N(CCNS(=O)(=O)c2ccc(C)cc2)c2ccccc21 (stereo not given)", "system name": "MALME-3M melanoma", "group": "fulfilled"}
{"compound": "O=C1C(=O)c2ccccc2C(O)=C1CCCc1ccc(C2CCCCCC2)cc1", "system name": "MALME-3M melanoma", "group": "fulfilled"}
{"compound": "CCOC(=O)/C=C/[C@H](O)[C@@H](O)/C=C/C(=O)OCC", "system name": "MALME-3M melanoma", "group": "fulfilled"}
{"compound": "OCCNCCCOc1ccc2ncnc(Nc3ccc(Oc4cccc(C(F)(F)F)c4)c(Cl)c3)c2c1", "system name": "MALME-3M melanoma", "group": "not fulfilled"}
{"compound": "Oc1ccccc1C1=NOC(c2ccc(C(F)(F)F)cc2)C1 (stereo not given)", "system name": "MALME-3M melanoma", "group": "fulfilled"}
{"compound": "C/C=C/[C@H]1O[C@@H]2C(=C[C@H]1O)C(=O)O[C@H]2C", "system name": "MALME-3M melanoma", "group": "fulfilled"}
{"compound": "CCCCCCOc1ccc(C(=O)N(C)O)cc1", "system name": "MALME-3M melanoma", "group": "fulfilled"}

Recorded values, source PubChem BioAssay (NCI).
